Consider the following molecules and their measured IC50 readings.
Tested on: Jurkat
Assay: MTS proliferation assay
Assay type: cell-based, human
Settings: 72 h read-out
EXPERIMENTAL ENDPOINT: IC50

INSERT INTO results (molecule, tested_system, data_value) VALUES
  ('COc1ccc(Nc2cncc(-c3cccc(NC(=O)c4ccc(OC)cc4)c3)c2)cc1 [Example 9]', 'Jurkat', '0.1 to 1 µM'),
  ('COc1ccc(Nc2cncc(-c3cccc(NC(=O)c4cnccn4)c3)c2)cc1 [Example 12]', 'Jurkat', '< 0.01 µM'),
  ('COc1ccc(Nc2cncc(-c3cccc(NC(=O)c4ccco4)c3)c2)cc1 [Example 14]', 'Jurkat', '0.01 to 0.1 µM'),
  ('COc1ccc(Nc2cncc(-c3cccc(NC(=O)c4cccs4)c3)c2)cc1 [Example 22]', 'Jurkat', '0.01 to 0.1 µM'),
  ('O=C(Nc1cccc(-c2cncc(Nc3ccc(OCc4ccccc4)cc3)c2)c1)c1ccccc1 [Example 27]', 'Jurkat', '> 1 µM'),
  ('CCC(=O)Nc1cccc(-c2cncc(Nc3ccc(OC)cc3)c2)c1 [Example 21]', 'Jurkat', '0.01 to 0.1 µM'),
  ('COc1ccc(Nc2cncc(-c3cccc(NS(=O)(=O)c4ccccc4)c3)c2)cc1 [Example 23]', 'Jurkat', '0.1 to 1 µM'),
  ('CCOc1ccccc1C(=O)Nc1cccc(-c2cncc(Nc3ccc(OC)cc3)c2)c1 [Example 10]', 'Jurkat', '0.01 to 0.1 µM'),
  ('COc1ccc(Nc2cncc(-c3cccc(NC(=O)c4ccccc4)c3)c2)c(OC)c1 [Example 30]', 'Jurkat', '0.1 to 1 µM');

====

Test system: Jurkat
Test: MTS proliferation assay
Type: cell-based, human
Settings: Homo sapiens, 72 h read-out
pIC50: −log10 of the molar value.
Consider the following compounds and their measured pIC50 readings.
EXPERIMENTAL ENDPOINT: pIC50

INSERT INTO results (smiles_text, data_value) VALUES
  ('COc1ccc(Nc2cncc(-c3cccc(NC(=O)c4ccccc4)c3)c2)cc1', '> 8.00'),
  ('COc1ccc(Nc2cncc(-c3cccc(Nc4ccccn4)c3)c2)cc1', '7.00 to 8.00'),
  ('COc1ccc(Nc2cncc(-c3cccc(NS(C)(=O)=O)c3)c2)cc1', '7.00 to 8.00');

====

Tested on: Jurkat
Assay: Mitochondrial membrane potential (JC-1)
Format: cell-based, human
Details: 48 h read-out
EXPERIMENTAL ENDPOINT: EC50

INSERT INTO assay_data (smiles_text, tested_system, experimental_endpoint, data_value) VALUES
  ('COc1ccc(Nc2cncc(-c3cccc(NC(=O)c4ccccc4)c3)c2)c(OC)c1', 'Jurkat', 'EC50', '> 1000 nM'),
  ('COc1ccc(Nc2cncc(-c3cccc(NC(=O)c4cccc(OC)c4)c3)c2)cc1', 'Jurkat', 'EC50', '100 to 1000 nM'),
  ('O=C(Nc1cccc(-c2cncc(Nc3ccc(OCc4ccccc4)cc3)c2)c1)c1ccccc1', 'Jurkat', 'EC50', '> 1000 nM'),
  ('COc1ccc(Nc2cncc(-c3cccc(NC(C)=O)c3)c2)cc1', 'Jurkat', 'EC50', '100 to 1000 nM'),
  ('COc1ccc(Nc2cncc(-c3cccc(NC(=O)c4ccncc4)c3)c2)cc1', 'Jurkat', 'EC50', '< 10 nM');

====

Tested on: HeLa
Experiment: MTS proliferation assay
Assay type: cell-based, human
Settings: 72 h read-out
pIC50: −log10 of the molar value.
EXPERIMENTAL ENDPOINT: pIC50

INSERT INTO assay_data (smiles_text, experimental_endpoint, data_value) VALUES
  ('COc1ccc(Nc2cncc(-c3cccc(NC(=O)c4cccc(OC)c4)c3)c2)cc1', 'pIC50', '< 6.00'),
  ('COc1ccc(Nc2cncc(-c3cccc(NC(=O)Cc4ccccc4)c3)c2)cc1', 'pIC50', '6.00 to 7.00'),
  ('COc1ccc(Nc2cncc(-c3cccc(NS(=O)(=O)c4ccccc4)c3)c2)cc1', 'pIC50', '6.00 to 7.00'),
  ('CCC(=O)Nc1cccc(-c2cncc(Nc3ccc(OC)cc3)c2)c1', 'pIC50', '6.00 to 7.00'),
  ('COc1ccc(Nc2cncc(-c3cccc(NC(C)=O)c3)c2)cc1', 'pIC50', '6.00 to 7.00');

====

Test system: H460
Experiment: Colony Forming Units
Assay type: cell-based, human
Settings: H460, read-out after 6 days
EXPERIMENTAL ENDPOINT: IC50

INSERT INTO assay_data (smiles_text, experimental_endpoint, data_value) VALUES
  ('CCS(=O)(=O)Nc1cccc(-c2cncc(Nc3ccc(OC)cc3)c2)c1', 'IC50', '10 to 100 nM');

====

Consider the following molecules and their measured IC50 readings.
System: Jily
Experiment: MTS proliferation assay
Type: cell-based
Conditions: 72 h read-out
Procedure: The assay is performed in 96 well tissue culture plates. The cells (range: 1.5*10^3-10^4) are seeded out in 80 μl complete medium 24 h prior to compound treatment. The test compounds are added in 20 μl complete medium containing max 5% DMSO. The final compound concentrations in the assays are in the range of 0.001 μM-10 μM. The assay plates are incubated for 72 h at culture conditions. […] Subsequently, the plates are shortly shaked and absorption measured with a microplate-reader at 492 nm. […]
EXPERIMENTAL ENDPOINT: IC50

INSERT INTO results (smiles_text, tested_system, experimental_endpoint, data_value) VALUES
  ('COc1ccc(Nc2cncc(-c3cccc(NC(=O)c4cccs4)c3)c2)cc1', 'Jily', 'IC50', '10 to 100 nM'),
  ('COc1ccc(Nc2cncc(-c3cccc(NC(=O)c4ccco4)c3)c2)cc1', 'Jily', 'IC50', '10 to 100 nM'),
  ('COc1ccc(Nc2cncc(-c3cccc(NS(=O)(=O)CCCCl)c3)c2)cc1', 'Jily', 'IC50', '10 to 100 nM'),
  ('COc1ccc(Nc2cncc(-c3cccc(NC(C)=O)c3)c2)cc1', 'Jily', 'IC50', '100 to 1000 nM');

====

System: Jily
Assay: MTS proliferation assay
Type: cell-based
Details: 72 h read-out
Consider the following compounds and their measured IC50 readings.
EXPERIMENTAL ENDPOINT: IC50

INSERT INTO assay_data (smiles_text, data_value) VALUES
  ('COc1ccc(Nc2cncc(-c3cccc(NC(=O)c4ccccn4)c3)c2)cc1', '10 to 100 nM'),
  ('CCOc1ccccc1C(=O)Nc1cccc(-c2cncc(Nc3ccc(OC)cc3)c2)c1', '10 to 100 nM'),
  ('COc1ccc(Nc2cncc(-c3cccc(NC(=O)c4cnccn4)c3)c2)cc1', '10 to 100 nM'),
  ('COc1ccc(Nc2cncc(-c3cccc(NC(=O)c4ccccc4)c3)c2)cc1', '< 10 nM'),
  ('COc1ccc(Nc2cncc(-c3cccc(NC(=O)c4cccc(OC)c4)c3)c2)cc1', '100 to 1000 nM'),
  ('COc1ccc(Nc2cncc(-c3cccc(NC(=O)c4cccnc4)c3)c2)cc1', '10 to 100 nM'),
  ('COc1ccc(Nc2cncc(-c3cccc(NS(=O)(=O)c4ccccc4)c3)c2)cc1', '100 to 1000 nM'),
  ('COc1ccc(Nc2cncc(-c3cccc(NC(=O)c4cccnc4Cl)c3)c2)cc1', '10 to 100 nM'),
  ('CCS(=O)(=O)Nc1cccc(-c2cncc(Nc3ccc(OC)cc3)c2)c1', '10 to 100 nM');

====

System: Jurkat
Assay: Mitochondrial membrane potential (JC-1)
Assay type: cell-based, human
Conditions: 48 h read-out
EXPERIMENTAL ENDPOINT: EC50

INSERT INTO assay_data (smiles_text, experimental_endpoint, data_value) VALUES
  ('COc1ccc(Nc2cncc(-c3cccc(NC(=O)Cc4ccccc4)c3)c2)cc1', 'EC50', '10 to 100 nM'),
  ('COc1ccc(Nc2cncc(-c3cccc(NC(=O)c4cccnc4)c3)c2)cc1', 'EC50', '10 to 100 nM'),
  ('COc1ccc(Nc2cncc(-c3cccc(NC(=O)c4ccccn4)c3)c2)cc1', 'EC50', '10 to 100 nM'),
  ('COc1ccc(Nc2cncc(-c3cccc(NC(=O)c4cccs4)c3)c2)cc1', 'EC50', '10 to 100 nM'),
  ('CCS(=O)(=O)Nc1cccc(-c2cncc(Nc3ccc(OC)cc3)c2)c1', 'EC50', '< 10 nM'),
  ('COc1ccc(Nc2cncc(-c3cccc(NS(=O)(=O)c4ccccc4)c3)c2)cc1', 'EC50', '100 to 1000 nM'),
  ('COc1ccc(Nc2cncc(-c3cccc(NC(=O)c4ccccc4)c3)c2)cc1OC', 'EC50', '100 to 1000 nM'),
  ('COc1ccc(Nc2cncc(-c3cccc(NC(=O)C(C)C)c3)c2)cc1', 'EC50', '100 to 1000 nM'),
  ('CCC(=O)Nc1cccc(-c2cncc(Nc3ccc(OC)cc3)c2)c1', 'EC50', '100 to 1000 nM');
